Target of assay: Enoyl-[acyl-carrier-protein] reductase [NADH] (Mycobacterium tuberculosis)
Experimental details: Inhibition of Mycobacterium tuberculosis recombinant His6-tagged InhA expressed in Escherichia coli BL21(DE3) using 2-trans-decenoyl-CoA as substrate at 10 uM incubated for 2 hrs prior to substrate addition by spectrophotometry
# label = fulfilled if inhibition >= 50% else not fulfilled

[
  {
    "Smiles notation": "O=C(Cn1c(=O)oc2cc([N+](=O)[O-])ccc21)Nc1nc2ccccc2s1",
    "Target of assay": "Enoyl-[acyl-carrier-protein] reductase [NADH] (Mycobacterium tuberculosis)",
    "Group label": "fulfilled"
  },
  {
    "Smiles notation": "O=C(Cn1c(=O)oc2cc([N+](=O)[O-])ccc21)Nc1ccccn1",
    "Target of assay": "Enoyl-[acyl-carrier-protein] reductase [NADH] (Mycobacterium tuberculosis)",
    "Group label": "not fulfilled"
  },
  {
    "Smiles notation": "O=C(Cn1c(=O)oc2ccccc21)Nc1nc2ccccc2s1",
    "Target of assay": "Enoyl-[acyl-carrier-protein] reductase [NADH] (Mycobacterium tuberculosis)",
    "Group label": "not fulfilled"
  },
  {
    "Smiles notation": "O=C(Cn1c(=O)oc2cc(Cl)ccc21)NCc1cccs1",
    "Target of assay": "Enoyl-[acyl-carrier-protein] reductase [NADH] (Mycobacterium tuberculosis)",
    "Group label": "not fulfilled"
  },
  {
    "Smiles notation": "O=C(Cn1c(=O)oc2ccccc21)NCc1ccco1",
    "Target of assay": "Enoyl-[acyl-carrier-protein] reductase [NADH] (Mycobacterium tuberculosis)",
    "Group label": "not fulfilled"
  },
  {
    "Smiles notation": "O=C(Cn1c(=O)oc2cc([N+](=O)[O-])ccc21)Nc1ccccc1",
    "Target of assay": "Enoyl-[acyl-carrier-protein] reductase [NADH] (Mycobacterium tuberculosis)",
    "Group label": "not fulfilled"
  }
]

Next item in the queue.
Confirm if inhibition reported for the compound "O=C(Cn1c(=O)oc2ccccc21)Nc1nc2ccc([N+](=O)[O-])cc2s1" is 50% or above.
not fulfilled

---

Experimental details: Cytotoxicity against mouse RAW264.7 cells at 100 uM after 72 hrs by MTT assay
Assay type: cell-based
Condition label: read-out: INH
Parameter: cytotoxicity at 72 h, 100 µM (%)
Number in %, nothing else.

Solved cases below.
[
  {
    "Smiles notation": "O=C(Cn1c(=O)oc2cc([N+](=O)[O-])ccc21)Nc1nc2ccc([N+](=O)[O-])cc2s1",
    "cytotoxicity at 72 h, 100 µM, %": 39
  },
  {
    "Smiles notation": "O=C(Cn1c(=O)oc2ccccc21)NCc1ccco1",
    "cytotoxicity at 72 h, 100 µM, %": 33.8
  },
  {
    "Smiles notation": "O=C(Cn1c(=O)oc2ccccc21)Nc1cc(C(F)(F)F)ccc1Cl",
    "cytotoxicity at 72 h, 100 µM, %": 15.4
  },
  {
    "Smiles notation": "O=C(Cn1c(=O)oc2cc(Cl)ccc21)Nc1ccccc1",
    "cytotoxicity at 72 h, 100 µM, %": 20.2
  },
  {
    "Smiles notation": "O=C(Cn1c(=O)oc2cc([N+](=O)[O-])ccc21)NCc1ccco1",
    "cytotoxicity at 72 h, 100 µM, %": 60.1
  },
  {
    "Smiles notation": "O=C(Cn1c(=O)oc2cc([N+](=O)[O-])ccc21)NCc1ccccn1",
    "cytotoxicity at 72 h, 100 µM, %": 33.4
  },
  {
    "Smiles notation": "O=C(Cn1c(=O)oc2cc(Cl)ccc21)Nc1nc2ccccc2s1",
    "cytotoxicity at 72 h, 100 µM, %": 52.5
  },
  {
    "Smiles notation": "O=C(Cn1c(=O)oc2cc(Cl)ccc21)NCc1cccs1",
    "cytotoxicity at 72 h, 100 µM, %": 53.6
  },
  {
    "Smiles notation": "O=C(Cn1c(=O)oc2cc(Cl)ccc21)Nc1cc(C(F)(F)F)ccc1Cl",
    "cytotoxicity at 72 h, 100 µM, %": 12.1
  },
  {
    "Smiles notation": "O=C(Cn1c(=O)oc2cc(Cl)ccc21)Nc1ncc([N+](=O)[O-])s1",
    "cytotoxicity at 72 h, 100 µM, %": 50.6
  }
]

Can you share its cytotoxicity at 72 h, 100 µM? I mean this compound: "O=C(Cn1c(=O)oc2cc([N+](=O)[O-])ccc21)Nc1cc(C(F)(F)F)ccc1Cl"
31.6

Next entry: "O=C(Cn1c(=O)oc2cc([N+](=O)[O-])ccc21)Nc1ccccc1"
26.4

---

Target of assay: Enoyl-[acyl-carrier-protein] reductase [NADH] (Mycobacterium tuberculosis) (UniProt P9WGR1)
Sequence (whole entry): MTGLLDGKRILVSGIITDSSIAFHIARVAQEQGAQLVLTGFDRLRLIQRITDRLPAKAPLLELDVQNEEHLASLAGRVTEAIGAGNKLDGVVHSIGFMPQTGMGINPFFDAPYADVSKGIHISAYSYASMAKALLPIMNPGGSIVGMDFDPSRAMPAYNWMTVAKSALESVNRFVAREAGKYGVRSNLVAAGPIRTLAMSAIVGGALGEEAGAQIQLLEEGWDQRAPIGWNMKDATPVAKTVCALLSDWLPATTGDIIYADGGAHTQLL
Experimental details: Inhibition of Mycobacterium tuberculosis recombinant His6-tagged InhA expressed in Escherichia coli BL21(DE3) using 2-trans-decenoyl-CoA as substrate at 10 uM incubated for 2 hrs prior to substrate addition by spectrophotometry
Parameter: inhibition
Please state the value followed by its unit.

[
  {
    "Smiles notation": "O=C(Cn1c(=O)oc2cc(Cl)ccc21)Nc1ncc([N+](=O)[O-])s1",
    "inhibition": "72.6%"
  },
  {
    "Smiles notation": "O=C(Cn1c(=O)oc2cc(Cl)ccc21)NCc1ccccn1",
    "inhibition": "43.1%"
  }
]

# ---- query compound ----
Can you share its inhibition? I mean this compound: "O=C(Cn1c(=O)oc2ccccc21)NCc1ccccn1"
42.2%
